biological target: Metallo-beta-lactamase type 2 (Bacteroides fragilis); experiment: Competitive inhibition of Bacteroides fragilis metallo-beta-lactamase CcrA
Sequence (P25910 whole entry): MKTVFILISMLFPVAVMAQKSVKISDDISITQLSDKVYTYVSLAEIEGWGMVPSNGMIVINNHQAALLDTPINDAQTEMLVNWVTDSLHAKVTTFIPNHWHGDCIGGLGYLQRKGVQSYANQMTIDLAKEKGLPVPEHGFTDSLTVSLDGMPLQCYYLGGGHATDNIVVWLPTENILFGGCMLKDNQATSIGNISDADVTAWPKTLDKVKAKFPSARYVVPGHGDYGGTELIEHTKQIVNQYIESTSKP
Measure Name: IC50 (nM)
Respond with the bare value in nM.

# input Any idea what its IC50 is? The molecule is c1ccc(-c2nnn[nH]2)c(-c2ccc(Cn3c4ccccc4c4ccccc43)cc2)c1
# output 300

---

test: Inhibition of human purple acid phosphatase; details: read-out: IC50
Measure Name: pIC50
Friendly reminder that pIC50 comes from taking -log10 of the concentration in mol/L.

O=P(O)(O)C(Cc1ccc(-c2ccccc2)cc1)c1cccc2ccccc12 (stereo not drawn): 5.20
O=C(c1ccccc1)C(C(=O)c1ccccc1)(c1cccc2ccccc12)P(=O)(O)O: 5.85

Here's the next entry for you.
# input Tell me the measured pIC50 of O=P(O)(O)Cc1cccc2ccccc12 , please.
# output 4.52

---

test: Inhibition of metallo-beta-lactamase CphA (unknown origin)
Listed below: pKi values for each entry.
A value of pKi is the negative decimal logarithm of a concentration given in moles per litre.

Look over these answered cases.
O=C(COc1ccccc1)NC(Cc1ccccc1)C(O)C(F)(F)F (centres undefined): 5.82
CC(NC(=O)COc1ccccc1)C(=O)C(F)(F)F (centres undefined): 5.82
CC(NC(=O)COc1ccccc1)C(O)C(F)(F)F (centres undefined): 5.82

Kindly consider the entry below.
# input Requested read-out: pKi. Entry: O=C(COc1ccccc1)NC(Cc1ccccc1)C(=O)C(F)(F)F (centres undefined)
# output 5.82

---

Recorded measurements of pIC50, one per entry
target: Beta-lactamase L1 (Stenotrophomonas maltophilia); assay: Inhibition of Stenotrophomonas maltophilia metallo-beta-lactamase L1 after 5 mins
Sequence (P52700 whole entry): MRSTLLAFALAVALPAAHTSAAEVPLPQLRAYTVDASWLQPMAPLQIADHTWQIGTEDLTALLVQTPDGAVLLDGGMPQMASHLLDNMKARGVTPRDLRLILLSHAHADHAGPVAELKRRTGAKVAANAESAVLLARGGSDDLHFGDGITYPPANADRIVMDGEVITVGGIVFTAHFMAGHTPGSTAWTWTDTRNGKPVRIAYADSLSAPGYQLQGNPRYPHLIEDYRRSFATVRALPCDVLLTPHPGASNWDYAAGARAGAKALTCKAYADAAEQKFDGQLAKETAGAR
Just so you know, pIC50 here is -log10 of the concentration in molar units; reply with that number alone.

COC(=O)c1cc(SCC(NC(C)=O)C(=O)OC)cc2nc3c(C(=O)O)cccc3nc12 (configuration not stated): 6.00

Here's the next entry for you.
# input So what pIC50 did COC(=O)c1c(O)ccc2nc3c(C(=O)O)cccc3nc12 get with Beta-lactamase L1 (Stenotrophomonas maltophilia)?
# output 6.00
